target-entity: PARS (Mus musculus)
Construct: endogenous in cells; host or cells: RAW mouse macrophages
method: PARS activation in peroxynitrite-treated cultured macrophages (whole-cell 3H-NAD+ assay)
Format: cell-based
measurement-conditions: 300 nM, cultured murine macrophages
property-name: % PARS inhibition at 300 nM (%)

Below: 7 compounds and their reported % PARS inhibition at 300 nM.
* O=c1[nH]c2c(c3ccccc13)Cc1cc(S(=O)(=O)n3ccnc3)ccc1-2 | 82
* O=c1[nH]c2c(c3ccccc13)Cc1cc(S(=O)(=O)N3CCN(CCO)CC3)ccc1-2 | 27
* O=c1[nH]c2c(c3ccccc13)Cc1cc(S(=O)(=O)NCCN3CCOCC3)ccc1-2 | 76
* O=c1[nH]c2c(c3ccccc13)Cc1cc(S(=O)(=O)N(CCN(CCO)CCO)CCN(CCO)CCO)ccc1-2 | 28
* O=c1[nH]c2c(c3ccccc13)Cc1cc(S(=O)(=O)NCCCN3CCCC3)ccc1-2 | 50
* O=c1[nH]c2c(c3ccccc13)Cc1cc(S(=O)(=O)NCCN3CCCCC3)ccc1-2 | 76
* CN1CCN(CCCNS(=O)(=O)c2ccc3c(c2)Cc2c-3[nH]c(=O)c3ccccc23)CC1 | 55

P = CN1CCN(S(=O)(=O)c2ccc3c(c2)Cc2c-3[nH]c(=O)c3ccccc23)CC1
Q = CN(C)CCN(CCN(C)C)S(=O)(=O)c1ccc2c(c1)Cc1c-2[nH]c(=O)c2ccccc12
R = O=c1[nH]c2c(c3ccccc13)Cc1cc(S(=O)(=O)N3CCCC3CO)ccc1-2 (stereo not shown)
Sort by % PARS inhibition at 300 nM, descending. Reply: labels, ordered per the request. R, P, Q

* * *

target-entity: PARS (Mus musculus, UniProt P11103)
Construct: Raw mouse macrophages were cultured in DMEM medium with high glucose; endogenous in cells
Sequence (P11103 whole entry): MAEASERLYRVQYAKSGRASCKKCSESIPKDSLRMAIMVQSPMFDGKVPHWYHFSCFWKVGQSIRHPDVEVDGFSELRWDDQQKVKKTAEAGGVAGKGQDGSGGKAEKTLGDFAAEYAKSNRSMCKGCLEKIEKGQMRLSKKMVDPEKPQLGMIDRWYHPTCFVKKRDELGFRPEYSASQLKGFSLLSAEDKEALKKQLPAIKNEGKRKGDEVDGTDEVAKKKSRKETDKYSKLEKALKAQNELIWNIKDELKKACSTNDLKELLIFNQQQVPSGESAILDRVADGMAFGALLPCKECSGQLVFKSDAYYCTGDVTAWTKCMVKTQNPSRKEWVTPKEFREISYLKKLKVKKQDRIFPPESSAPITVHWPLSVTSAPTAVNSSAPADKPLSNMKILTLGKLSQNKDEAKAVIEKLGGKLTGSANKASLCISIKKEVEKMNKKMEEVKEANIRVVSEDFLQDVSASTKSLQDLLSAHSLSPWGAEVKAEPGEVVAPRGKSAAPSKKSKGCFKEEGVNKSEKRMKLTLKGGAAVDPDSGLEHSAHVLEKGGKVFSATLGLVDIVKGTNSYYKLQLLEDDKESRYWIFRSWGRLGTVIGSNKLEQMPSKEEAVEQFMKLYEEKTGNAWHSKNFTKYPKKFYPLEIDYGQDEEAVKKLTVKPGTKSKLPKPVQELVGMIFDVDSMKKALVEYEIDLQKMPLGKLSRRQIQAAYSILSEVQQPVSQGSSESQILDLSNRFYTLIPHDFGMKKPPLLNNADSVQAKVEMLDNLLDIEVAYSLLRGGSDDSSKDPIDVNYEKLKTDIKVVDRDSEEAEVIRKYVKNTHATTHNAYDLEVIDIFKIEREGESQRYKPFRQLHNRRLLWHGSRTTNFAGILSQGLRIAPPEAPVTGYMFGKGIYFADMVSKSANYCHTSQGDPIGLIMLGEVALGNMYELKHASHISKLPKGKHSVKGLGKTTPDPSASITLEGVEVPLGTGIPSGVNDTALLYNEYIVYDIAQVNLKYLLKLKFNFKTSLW
method: Cell protection assay, peroxynitrite-treated raw mouse macrophages
measurement-conditions: peroxynitrite 750 μM
pEC50: −log10 of the molar value.
property-name: pEC50

* CCCNC(=O)Nc1ccc2c(c1)Cc1c-2[nH]c(=O)c2ccccc12 | 7.10
* O=S(=O)(O)c1ccc2c(c1)Cc1c-2nc(O)c2ccccc12 | 6.20
* Oc1nc2c(c3ccccc13)Cc1ccc(F)cc1-2 | 6.65

1 = O=c1[nH]c2c(c3ccccc13)Cc1cc(F)ccc1-2
2 = O=S(=O)(NCCCN1CCOCC1)c1cc2c(cc1F)-c1nc(O)c3ccccc3c1C2
Could you please tell me which of these two has the higher pEC50: 1 or 2 ? API: response body contains the label of the selected item. 2

* * *

target-entity: PARS (Mus musculus)
Construct: endogenous in cells; host or cells: RAW mouse macrophages
method: PARS activation in peroxynitrite-treated cultured macrophages (whole-cell 3H-NAD+ assay)
Format: cell-based
measurement-conditions: 1 μM, cultured murine macrophages
property-name: inhibition at 1 µM (%)

// solved cases for inhibition at 1 µM follow
• NS(=O)(=O)c1ccc2c3[nH]c(=O)c4ccccc4c3n(S(N)(=O)=O)c2c1 [Compound 35a] = 75
• O=c1[nH]c2c(c3ccccc13)C(N1CCOCC1)c1ccccc1-2 (racemic) [Compound 5e] = 21
• O=c1[nH]c2c3ccc(O)cc3oc2c2ccccc12 [Compound 23b] = 58

P = O=c1[nH]c2c(c3ccccc13)Cc1cc(S(=O)(=O)Cl)ccc1-2 [Compound 7]
Q = CCN(CC)C1c2ccccc2-c2[nH]c(=O)c3ccccc3c21 (racemic) [Compound 5b]
Select one: P or Q . Criterion: greater recorded inhibition at 1 µM. Kindly state the label of the option you pick. P
(P: 50%, Q: 33%)

1 = O=C1c2ccccc2-c2[nH]c(=O)c3ccccc3c21 [Compound 2]
2 = CC1(O)c2ccccc2-c2[nH]c(=O)c3ccccc3c21 (racemic) [Compound 3b]
Task for the reader: decide whether 1 or 2 has the larger inhibition at 1 µM. Your answer should be the label of the entry you select. 1
(1: 60%, 2: 25%)

* * *

target-entity: PARS (Mus musculus, UniProt P11103)
Construct: endogenous in cells; host or cells: RAW mouse macrophages
method: PARS activation in peroxynitrite-treated cultured macrophages (whole-cell 3H-NAD+ assay)
Format: cell-based
measurement-conditions: 1 μM, cultured murine macrophages
property-name: % PARS inhibition at 1 μM (%)

• CN(C)C1c2ccccc2-c2[nH]c(=O)c3ccccc3c21 (racemic) = 55

P = O=c1[nH]c2c(c3ccccc13)C(N1CCCCC1)c1ccccc1-2 (stereo not shown)
Q = COc1ccc2oc3c4ccccc4c(=O)[nH]c3c2c1 [Compound 22a]
R = CN1CCN(C2c3ccccc3-c3[nH]c(=O)c4ccccc4c32)CC1 (racemic)
Order the records by % PARS inhibition at 1 μM, with each subsequent value no larger than the one before. # list labels per requested ordering Q, P, R

* * *

target-entity: PARS (Mus musculus, UniProt P11103)
Construct: endogenous in cells; host or cells: RAW mouse macrophages
method: PARS activation in peroxynitrite-treated cultured macrophages (whole-cell 3H-NAD+ assay)
Type: cell-based
measurement-conditions: 100 nM, cultured murine macrophages
property-name: inhibition at 0.1 µM (%)

a = O=c1[nH]c2c3cc(O)ccc3oc2c2ccccc12 [Compound 23a]
b = O=c1[nH]c2c3ccc(O)cc3oc2c2ccccc12 [Compound 23b]
Sorting ascending by inhibition at 0.1 µM, which comes first: a or b ? API: response body contains the label of the selected item. a

* * *

target-entity: PARS (Mus musculus, UniProt P11103)
Construct: endogenous in cells; host or cells: RAW mouse macrophages
method: PARS activation in peroxynitrite-treated cultured macrophages (whole-cell 3H-NAD+ assay)
Assay type: cell-based
measurement-conditions: 100 nM, cultured murine macrophages
property-name: % PARS inhibition at 100 nM (%)

- CN1CCN(C2c3ccccc3-c3[nH]c(=O)c4ccccc4c32)CC1 (racemic) [Compound 5c]: 0
- O=c1[nH]c2c(c3ccccc13)C(N1CCCCC1)c1ccccc1-2 (stereo not shown) [Compound 5d]: 0
- CN(C)CCN(CCN(C)C)S(=O)(=O)c1ccc2c(c1)Cc1c-2[nH]c(=O)c2ccccc12 [Compound 8q]: 20
- O=c1[nH]c2c(c3ccccc13)Cc1cc(S(=O)(=O)n3ccnc3)ccc1-2 [Compound 8d]: 77
- COc1ccc2oc3c4ccccc4c(=O)[nH]c3c2c1 [Compound 22a]: 51
- CN(C)C1c2ccccc2-c2[nH]c(=O)c3ccccc3c21 (racemic) [Compound 5a]: 10
- CN1CCN(CCCNS(=O)(=O)c2ccc3c(c2)Cc2c-3[nH]c(=O)c3ccccc23)CC1 [Compound 8o]: 48

a = O=c1[nH]c2c(c3ccccc13)Cc1cc(S(=O)(=O)NCCN3CCCCC3)ccc1-2 [Compound 8h]
b = O=c1[nH]c2c(c3ccccc13)Cc1cc(S(=O)(=O)N(CCN(CCO)CCO)CCN(CCO)CCO)ccc1-2 [Compound 8r]
c = O=c1[nH]c2c(c3ccccc13)Cc1cc(S(=O)(=O)NCCN3CCOCC3)ccc1-2 [Compound 8j]
Sort the compounds on % PARS inhibition at 100 nM; start with the lowest figure. Present the labels in the sequence the task asks for. b, c, a

* * *

target-entity: PARS (Mus musculus, UniProt P11103)
Construct: endogenous in cells; host or cells: RAW mouse macrophages
method: PARS activation in peroxynitrite-treated cultured macrophages (whole-cell 3H-NAD+ assay)
Format: cell-based
measurement-conditions: 300 nM, cultured murine macrophages
property-name: inhibition at 0.3 µM (%)

These recorded examples may help you get a feel for the data.
• CC1(O)c2ccccc2-c2[nH]c(=O)c3ccccc3c21 (racemic) = 0
• O=c1[nH]c2c3ccc(O)cc3oc2c2ccccc12 [Compound 23b] = 57
• COc1cccc(C2(O)c3ccccc3-c3[nH]c(=O)c4ccccc4c32)c1 (racemic) = 9
• CN(C)CCNS(=O)(=O)c1ccc2c(c1)Cc1c-2[nH]c(=O)c2ccccc12 = 55

P = O=c1[nH]c2c3cc(O)ccc3oc2c2ccccc12 [Compound 23a]
Q = CCN(CC)CCN(CCN(CC)CC)S(=O)(=O)c1ccc2c(c1)=Cc1c3c(c(=O)[nH]c1=2)=CC=CC3
Parameter metric = inhibition at 0.3 µM. Return the lower-valued option from P and Q . When you have decided, please share the label of that item. Q

* * *

target-entity: PARS (Mus musculus)
Construct: endogenous in cells; host or cells: RAW mouse macrophages
method: PARS activation in peroxynitrite-treated cultured macrophages (whole-cell 3H-NAD+ assay)
Format: cell-based
measurement-conditions: 1 μM, cultured murine macrophages
Experimental: Raw mouse macrophages were cultured in DMEM medium with high glucose and supplemented with 10% fetal bovine serum. Cells were used at 80% confluence in 12-well plates. Cells were pretreated with various concentrations (100 nM -1 µM) of an Isoquinoline Derivative for 10 min. […] Following an incubation in assay buffer, (10 min at 37° C.), PARS activity was measured as follows: 200 μl ice cold 50% w/v TCA was added and the samples were incubated for 4 hours at 4° C. […]
property-name: inhibition at 1 µM (%)

P = O=c1[nH]c2c(c3ccccc13)Cc1ccccc1-2 [Compound 6]
Q = COc1cccc(C2(O)c3ccccc3-c3[nH]c(=O)c4ccccc4c32)c1 (racemic) [Compound 3c]
Smaller inhibition at 1 µM value, P vs Q ? Mark your selection by writing its label. Q
